- Experiment summary: Clearance in mouse at 1 mg/kg, iv
- Type: ADME, organism-based
- Test settings: in vivo
Measured parameter: clearance (mL/min/kg)
Unit mL/min/kg implied. Number only.

Which clearance reading was recorded for the molecule O=C(NCCN1CCOCC1)Nc1nc2ccc(Sc3nnc4ccc(-c5ccc(F)cc5)nn34)cc2s1 ?
46.7

---

- Experiment summary: Drug metabolism in human hepatic microsomes at 5 uM incubated for 20 mins in presence of NADPH by liquid chromatography-tandem mass spectrometry
- Assay type: ADME, Microsome
- Test settings: liver microsomes, read-out: Drug metabolism
Some molecules, each annotated with its measured metabolised at 20 min, 5 µM.
For clarity, give the value followed by its unit.

// solved cases for metabolised at 20 min, 5 µM follow
smiles_entry=O=C(NCCN1CCOCC1)Nc1nc2ccc(Sc3nnc4ccc(NC5CCOCC5)nn34)cc2s1 value_observed=39%
smiles_entry=O=C(NCCN1CCOCC1)Nc1nc2ccc(Sc3nnc4ccc(-c5ccc(F)cc5)nn34)cc2s1 value_observed=23%
smiles_entry=O=C(NCCN1CCOCC1)Nc1nc2ccc(Sc3nnc4ccc(-c5cccc(F)c5)nn34)cc2s1 value_observed=24%

Which metabolised at 20 min, 5 µM reading was recorded for the molecule O=C(NCCN1CCOCC1)Nc1nc2ccc(Sc3nnc4ccc(Oc5cccc(F)c5)nn34)cc2s1 ?
16%

Another molecule: O=C(NCCN1CCOCC1)Nc1nc2ccc(Sc3nnc4ccc(NC5CCCCC5)nn34)cc2s1
38%

Another molecule: O=C(NCCN1CCOCC1)Nc1nc2ccc(Sc3nnc4ccc(OC5CCCC5)nn34)cc2s1
29%

Another molecule: CCCCOc1ccc2nnc(Sc3ccc4nc(NC(=O)NCCN5CCOCC5)sc4c3)n2n1
23%

Another molecule: O=C(NCCN1CCOCC1)Nc1nc2ccc(Sc3nnc4ccc(OC5CCCCCC5)nn34)cc2s1
36%

Another molecule: O=C(NCCN1CCOCC1)Nc1nc2ccc(Sc3nnc4ccc(Oc5ccccc5)nn34)cc2s1
32%

---

- System tested: UniProtKB P08684
- Sequence (P08684 whole entry): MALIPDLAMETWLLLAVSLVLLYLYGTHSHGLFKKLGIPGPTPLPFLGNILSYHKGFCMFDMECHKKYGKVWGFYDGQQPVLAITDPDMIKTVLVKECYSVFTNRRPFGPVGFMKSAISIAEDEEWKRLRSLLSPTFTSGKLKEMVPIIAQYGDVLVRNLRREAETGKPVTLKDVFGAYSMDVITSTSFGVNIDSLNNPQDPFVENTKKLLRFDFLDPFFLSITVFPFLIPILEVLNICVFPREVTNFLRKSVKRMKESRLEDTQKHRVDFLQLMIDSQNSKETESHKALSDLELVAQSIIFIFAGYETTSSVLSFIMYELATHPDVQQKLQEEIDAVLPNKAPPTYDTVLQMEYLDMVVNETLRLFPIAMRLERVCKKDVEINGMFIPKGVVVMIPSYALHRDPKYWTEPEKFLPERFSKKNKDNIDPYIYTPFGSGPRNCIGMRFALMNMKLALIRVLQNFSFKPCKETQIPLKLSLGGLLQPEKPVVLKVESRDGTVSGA
- Experiment summary: Inhibition of human recombinant CYP3A4 co-expressed with human P450 reductase and human b5 reductase assessed as reduction in 7-Hydroxyquinoline production using 7-benzyloxyquinoline as substrate and NADPH incubated for 15 mins by fluorimetry
Measured parameter: IC50 (µM)
Unit µM implied. Number only.

// solved cases for IC50 follow
smiles_entry=O=C(NCCN1CCOCC1)Nc1nc2ccc(Sc3nnc4ccc(OC5CCCCC5)nn34)cc2s1 value_observed=2.7
smiles_entry=O=C(NCCN1CCOCC1)Nc1nc2ccc(Sc3nnc4ccc(Oc5cccc(F)c5)nn34)cc2s1 value_observed=2
smiles_entry=O=C(NCCN1CCOCC1)Nc1nc2ccc(Sc3nnc4ccc(-c5cccc(F)c5)nn34)cc2s1 value_observed=1.8

Switching to the query record.
Which IC50 reading was recorded for the compound O=C(NCCN1CCOCC1)Nc1nc2ccc(Sc3nnc4ccc(Oc5ccccc5)nn34)cc2s1 ?
7.9

---

- Experiment summary: Clearance in rat at 5 mg/kg, iv
- Type: ADME, organism-based
- Test settings: in vivo
Measured parameter: clearance (mL/min/kg)
Unit mL/min/kg implied. Number only.

Which clearance reading was recorded for the compound O=C(NCCN1CCOCC1)Nc1nc2ccc(Sc3nnc4ccc(-c5ccc(F)cc5)nn34)cc2s1 [SAR-125844] ?
25

---

Some compounds, each annotated with its measured pIC50.
- System tested: Hepatocyte growth factor receptor (Homo sapiens, UniProt P08581, Y1230H)
- Sequence (P08581 25-1390 Y1230H limits assumed): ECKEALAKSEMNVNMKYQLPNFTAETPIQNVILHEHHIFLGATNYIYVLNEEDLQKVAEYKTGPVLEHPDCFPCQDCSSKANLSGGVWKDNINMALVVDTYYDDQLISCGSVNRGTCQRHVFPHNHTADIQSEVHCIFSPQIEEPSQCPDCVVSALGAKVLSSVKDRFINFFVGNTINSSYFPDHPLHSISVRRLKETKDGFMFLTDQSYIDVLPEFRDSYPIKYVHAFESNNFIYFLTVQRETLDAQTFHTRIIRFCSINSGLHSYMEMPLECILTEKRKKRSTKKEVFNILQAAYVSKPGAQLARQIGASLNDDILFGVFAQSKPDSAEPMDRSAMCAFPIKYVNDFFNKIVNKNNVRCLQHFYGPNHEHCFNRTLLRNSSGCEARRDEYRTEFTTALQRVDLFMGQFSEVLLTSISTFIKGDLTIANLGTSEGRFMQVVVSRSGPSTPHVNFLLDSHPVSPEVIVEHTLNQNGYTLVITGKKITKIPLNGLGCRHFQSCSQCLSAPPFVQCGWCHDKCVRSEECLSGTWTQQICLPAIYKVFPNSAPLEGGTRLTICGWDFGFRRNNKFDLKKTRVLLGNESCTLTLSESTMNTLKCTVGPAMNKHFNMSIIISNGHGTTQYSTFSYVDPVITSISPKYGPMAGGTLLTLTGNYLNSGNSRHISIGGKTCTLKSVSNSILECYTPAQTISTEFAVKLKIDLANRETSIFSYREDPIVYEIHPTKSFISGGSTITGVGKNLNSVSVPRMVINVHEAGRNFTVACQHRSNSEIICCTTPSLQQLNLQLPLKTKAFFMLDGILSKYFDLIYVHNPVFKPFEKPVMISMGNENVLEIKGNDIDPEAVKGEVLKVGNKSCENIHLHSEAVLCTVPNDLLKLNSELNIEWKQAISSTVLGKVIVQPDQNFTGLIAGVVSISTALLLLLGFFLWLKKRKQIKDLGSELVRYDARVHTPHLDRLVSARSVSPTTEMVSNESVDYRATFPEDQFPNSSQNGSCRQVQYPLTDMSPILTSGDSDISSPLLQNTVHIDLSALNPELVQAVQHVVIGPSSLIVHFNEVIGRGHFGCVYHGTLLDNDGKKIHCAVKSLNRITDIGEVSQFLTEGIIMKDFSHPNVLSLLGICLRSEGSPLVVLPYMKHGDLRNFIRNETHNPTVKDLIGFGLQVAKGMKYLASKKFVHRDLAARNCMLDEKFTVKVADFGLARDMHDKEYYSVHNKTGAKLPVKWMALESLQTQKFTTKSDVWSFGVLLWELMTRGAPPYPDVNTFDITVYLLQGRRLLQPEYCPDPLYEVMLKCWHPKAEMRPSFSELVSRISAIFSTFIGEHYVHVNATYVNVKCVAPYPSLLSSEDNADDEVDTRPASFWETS
- Experiment summary: Inhibition of phosphorylated MET Y1230H mutant (unknown origin) pre-incubated for 30 mins before biotinylated poly(glutamate-alanine-tyrosine) peptide addition and measured after 5 mins by HTRF assay
By convention, pIC50 is the negative base-10 log of a molar concentration.

// solved cases for pIC50 follow
smiles_entry=O=C(NCCN1CCOCC1)Nc1nc2ccc(Sc3nnc4cccnn34)cc2s1 value_observed=5.32
smiles_entry=CCOc1ccc2nnc(Sc3ccc4nc(NC(=O)NCCN5CCOCC5)sc4c3)n2n1 value_observed=6.19
smiles_entry=O=C(NCCN1CCOCC1)Nc1nc2ccc(Sc3nnc4ccc(NC5CCCCC5)nn34)cc2s1 value_observed=6.86

Switching to the query record.
Which pIC50 reading was recorded for the compound O=C(NCCN1CCOCC1)Nc1nc2ccc(Sc3nnc4ccc(-c5ccc(F)cc5)nn34)cc2s1 ?
6.69

---

- Experiment summary: Protein binding in plasma of SCID mouse bearing advanced-stage human Hs746T cells at 20 mg/kg, iv administered as single dose after 24 hrs by liquid chromatography-tandem mass spectrometry
- Format: ADME, organism-based
- Test settings: read-out: PPB (converted)
Measured parameter: fraction unbound at 24 h
Respond numerically, and do not add a unit to the figure.

Which fraction unbound at 24 h reading was recorded for the molecule O=C(NCCN1CCOCC1)Nc1nc2ccc(Sc3nnc4ccc(-c5ccc(F)cc5)nn34)cc2s1 ?
0.0033

---

Some molecules, each annotated with its measured pIC50.
- System tested: Hepatocyte growth factor receptor (Homo sapiens, UniProt P08581, Y1230H)
- Experiment summary: Inhibition of phosphorylated MET Y1230H mutant (unknown origin) pre-incubated for 30 mins before biotinylated poly(glutamate-alanine-tyrosine) peptide addition and measured after 5 mins by HTRF assay
By convention, pIC50 is the negative base-10 log of a molar concentration.

// solved cases for pIC50 follow
smiles_entry=O=C(NCCN1CCOCC1)Nc1nc2ccc(Sc3nnc4ccc(NC5CC5)nn34)cc2s1 system_tested="Hepatocyte growth factor receptor (Homo sapiens, UniProt P08581, Y1230H)" value_observed=6.56
smiles_entry=CCN(CC)CCNC(=O)Nc1nc2ccc(Sc3nnc4ccc(-c5ccc(F)cc5)nn34)cc2s1 system_tested="Hepatocyte growth factor receptor (Homo sapiens, UniProt P08581, Y1230H)" value_observed=6.06
smiles_entry=CCCCOc1ccc2nnc(Sc3ccc4nc(NC(=O)NCCN5CCOCC5)sc4c3)n2n1 system_tested="Hepatocyte growth factor receptor (Homo sapiens, UniProt P08581, Y1230H)" value_observed=6.85

Which pIC50 reading was recorded for the molecule O=C(NCCN1CCOCC1)Nc1nc2ccc(Sc3nnc4ccc(OC5CCCCCC5)nn34)cc2s1 ?
6.39

---

- Experiment summary: Equilibrium solubility in phosphate buffer in absence of 10% Labrasol at pH 7.4
- Format: physicochemical
Some molecules, each annotated with its measured solubility thermodynamic.

// solved cases for solubility thermodynamic follow
smiles_entry=O=C(Nc1nc2ccc(Sc3nnc4ccc(-c5ccc(F)cc5)nn34)cc2s1)C1CC1 value_observed="< 1 µM"
smiles_entry=O=C(NCCN1CCOCC1)Nc1nc2ccc(Sc3nnc4ccc(NC5CC5)nn34)cc2s1 value_observed="< 2 µM"
smiles_entry=CCN1CCC(CCNC(=O)Nc2nc3ccc(Sc4nnc5ccc(-c6cccs6)nn45)cc3s2)CC1 value_observed="< 2 µM"
smiles_entry=Fc1ccc(-c2ccc3nnc(Sc4ccc5nc(NCCN6CCOCC6)sc5c4)n3n2)cc1 value_observed="< 1 µM"
smiles_entry=O=C(NCCN1CCOCC1)Nc1nc2ccc(Sc3nnc4ccc(Oc5cccc(F)c5)nn34)cc2s1 value_observed="< 2 µM"

Which solubility thermodynamic reading was recorded for the molecule O=C(Nc1nc2ccc(Sc3nnc4ccc(-c5ccc(F)cc5)nn34)cc2s1)OCCN1CCOCC1 ?
8 µM

Another molecule: O=C(NCCN1CCOCC1)Nc1nc2ccc(Sc3nnc4ccc(OC5CCCCC5)nn34)cc2s1
< 2 µM

Another molecule: CCNc1nc2ccc(Sc3nnc4ccc(-c5ccc(F)cc5)nn34)cc2s1
< 2.5 µM

Another molecule: COC(=O)Nc1nc2ccc(Sc3nnc4ccc(-c5ccc(F)cc5)nn34)cc2s1
< 1 µM

Another molecule: O=C(NCCN1CCOCC1)Nc1nc2ccc(Sc3nnc4ccc(OC5CCCC5)nn34)cc2s1
< 2 µM

Another molecule: O=C(NCCN1CCOCC1)Nc1nc2ccc(Sc3nnc4cccnn34)cc2s1
70 µM

Another molecule: O=C(NCCN1CCOCC1)Nc1nc2ccc(Sc3nnc4ccc(NC5CCCCC5)nn34)cc2s1
< 2 µM

---

- System: MKN-45
- Experiment summary: Antiproliferative activity against human MKN45 cells assessed as reduction in [14C]-thymidine incorporation incubated for 96 hrs by beta counting method
- Format: functional, cell-based
- Test settings: MKN-45, 96 h
Doc: threshold 30 nM (exclusive). Items with IC50 beneath it return 1.0; others return 0.0.

Some solved cases for reference:
smiles_entry=Fc1ccc(-c2ccc3nnc(Sc4ccc5nc(NCCN6CCOCC6)sc5c4)n3n2)cc1 system_tested=MKN-45 assigned_category=0.0
smiles_entry=CCN(CC)CCNC(=O)Nc1nc2ccc(Sc3nnc4ccc(-c5ccc(F)cc5)nn34)cc2s1 system_tested=MKN-45 assigned_category=0.0
smiles_entry=CCNc1nc2ccc(Sc3nnc4ccc(-c5ccc(F)cc5)nn34)cc2s1 system_tested=MKN-45 assigned_category=0.0
smiles_entry=Nc1nc2ccc(Sc3nnc4ccc(-c5ccc(F)cc5)nn34)cc2s1 system_tested=MKN-45 assigned_category=0.0
smiles_entry=COC(=O)Nc1nc2ccc(Sc3nnc4ccc(-c5ccc(F)cc5)nn34)cc2s1 system_tested=MKN-45 assigned_category=0.0
smiles_entry=O=C(Nc1nc2ccc(Sc3nnc4ccc(-c5ccc(F)cc5)nn34)cc2s1)OCCN1CCOCC1 system_tested=MKN-45 assigned_category=0.0
smiles_entry=O=C(CC1CC1)Nc1nc2ccc(Sc3nnc4ccc(-c5ccc(F)cc5)nn34)cc2s1 system_tested=MKN-45 assigned_category=1.0
smiles_entry=O=C(NCCN1CCOCC1)Nc1nc2ccc(Sc3nnc4ccc(-c5ccc(F)cc5)nn34)cc2s1 system_tested=MKN-45 assigned_category=1.0
smiles_entry=O=C(Nc1nc2ccc(Sc3nnc4ccc(-c5ccc(F)cc5)nn34)cc2s1)C1CC1 system_tested=MKN-45 assigned_category=1.0
smiles_entry=CCN1CCC(CCNC(=O)Nc2nc3ccc(Sc4nnc5ccc(-c6cccs6)nn45)cc3s2)CC1 system_tested=MKN-45 assigned_category=1.0

Please look at the following compound next.
Strictly below 30 nM in IC50? O=C(CCCN1CCOCC1)Nc1nc2ccc(Sc3nnc4ccc(-c5ccc(F)cc5)nn34)cc2s1
1.0

Where these numbers come from: ChEMBL document CHEMBL4425133
